Assignment: determine reported binding signal for the given sequences.
Target: RELARELA (p65 homodimer) (Homo sapiens, UniProt Q04206 1-307)
Sequence (Q04206 1-307): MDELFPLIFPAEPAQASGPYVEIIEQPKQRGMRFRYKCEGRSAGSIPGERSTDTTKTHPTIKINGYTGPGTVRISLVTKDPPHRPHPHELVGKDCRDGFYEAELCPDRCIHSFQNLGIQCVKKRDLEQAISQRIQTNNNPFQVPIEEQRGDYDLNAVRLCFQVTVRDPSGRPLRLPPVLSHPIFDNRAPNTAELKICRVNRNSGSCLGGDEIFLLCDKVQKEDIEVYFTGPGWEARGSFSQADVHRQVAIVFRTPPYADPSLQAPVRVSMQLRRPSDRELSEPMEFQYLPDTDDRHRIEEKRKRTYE
Assay: protein binding microarray; high values mean tight binding
Details: dsDNA, one strand shown
One number for each entry, in z-score.

>  <Residue sequence>
AGGGGAGTCCT

>  <Unit spec>
z-score

>  <binding signal>
0.691

$$$$
>  <Residue sequence>
AGAGTATTCCC

>  <Unit spec>
z-score

>  <binding signal>
1.05

$$$$
>  <Residue sequence>
AGATGAACCCC

>  <Unit spec>
z-score

>  <binding signal>
-0.232

$$$$

Record binding signal for all entries; do not skip any.
1. CGGGAGATCCT
2. AGGAAAGTCCC
3. GAGATCCTCCC
4. CGGAAATTCCC

A:
-0.093
2.97
-0.414
4.22

Hi there! I need binding signal for each item below, if you can.
1. AGGTGACTCCT
2. CGGGACTCCCC
3. GAGGAGCTCCT
4. CGATTGTCCCT
5. GAGAGTTCCCC

A:
[-0.642, 1.91, -0.566, 0.353, 1.61]

====

Target: C-Rel subunit;p50 subunit (Homo sapiens;Homo sapiens, UniProt Q04864;P19838 1-285;7-356)
Sequence (P19838 7-356, one chain of several): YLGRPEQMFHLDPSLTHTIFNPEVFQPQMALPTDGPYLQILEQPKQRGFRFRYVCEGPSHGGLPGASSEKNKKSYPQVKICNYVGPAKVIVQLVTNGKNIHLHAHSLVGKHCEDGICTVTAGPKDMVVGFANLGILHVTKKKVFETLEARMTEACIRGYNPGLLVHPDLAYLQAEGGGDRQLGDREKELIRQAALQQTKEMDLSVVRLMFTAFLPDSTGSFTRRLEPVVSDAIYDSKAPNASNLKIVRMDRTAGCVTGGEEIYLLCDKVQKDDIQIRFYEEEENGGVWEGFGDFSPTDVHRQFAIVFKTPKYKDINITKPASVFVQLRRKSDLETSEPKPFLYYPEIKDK
Experiment: protein binding microarray; high values mean tight binding
Conditions: dsDNA, one strand shown
Parameter threshold = 0.4 z-score. Response is Yes when binding signal meets or exceeds it, else No.

Q: Form field: binding signal at least 0.4 z-score? Entry: GAGAAACCCCC
A: Yes

Q: Given CAGAACTTCCC , state whether its binding signal is at least 0.4 z-score.
A: Yes

Q: Would you say CAGGACTTCCT shows binding signal at minimum 0.4 z-score?
A: No

Q: Please check the record AGGATTGTCCT and state if its binding signal is at or above 0.4 z-score.
A: No

Q: Is reported binding signal greater than or equal to 0.4 z-score here: GAATGTTTCCC
A: Yes

Q: Check this sequence for binding signal at or above 0.4 z-score: GGGTAAGTCCT
A: No

Q: Quick check: does GGAAACTCCCC have binding signal greater than or equal to 0.4 z-score?
A: Yes

Q: Quick check: does CAAGGGGTCCT have binding signal greater than or equal to 0.4 z-score?
A: No

Q: Assess whether reported binding signal for GGATGTCCCCC sits at 0.4 z-score or higher.
A: Yes

Q: hey, is binding signal for this one >= 0.4 z-score? GGAGTAATCCC
A: No

Q: binding signal >= 0.4 z-score for AGAGAGGCCCC ?
A: No

Q: I'd appreciate it if you could say whether GAGAAAGTCCC has binding signal at least equal to 0.4 z-score.
A: Yes

Q: Does the reported binding signal for CGGGGTCTCCT fall at or above the 0.4 z-score mark?
A: No

Q: I'd appreciate it if you could say whether CAGGTACCCCT has binding signal at least equal to 0.4 z-score.
A: No

Q: # check: binding signal of CGGTGGTTCCT is greater than or equal to 0.4 z-score
A: No

Q: Would you say CGGAGTATCCC shows binding signal at minimum 0.4 z-score?
A: No

Q: # bool: binding signal of GAATATTCCCT >= 0.4 z-score
A: Yes

Q: Is the recorded value of binding signal equal to or greater than 0.4 z-score for this sequence? AAATAGATCCC
A: No

Q: Textbook exercise: given the entry GAGGTGGTCCT , state whether its binding signal is greater than or equal to 0.4 z-score.
A: No

Q: State whether the measured binding signal reaches 0.4 z-score, counting equality as reaching it, for AAGGGCACCCC
A: No

Q: # bool: binding signal of AGGGATCTCCC >= 0.4 z-score
A: Yes

Q: Record GGGATAGTCCC ; criterion: binding signal no lower than 0.4 z-score. Met?
A: Yes

====

Target: RELA (p65) subunit of heterodimer;p50 subunit (Homo sapiens;Homo sapiens, UniProt Q04206;P19838 1-307;7-356)
Sequence (Q04206 1-307, chain 1 of 2): as the sequence (Q04206 1-307) above
Sequence (P19838 7-356, chain 2 of 2): as the sequence (P19838 7-356, one chain of several) above
Test: protein binding microarray; high values mean tight binding
Details: dsDNA, one strand shown
Exercise: state measured binding signal for each of the sequences provided.
Give bare numbers, in z-score.

>  <Residue sequence>
GAATGGCCCCT

>  <Unit spec>
z-score

>  <binding signal>
0.128

$$$$
>  <Residue sequence>
CGGTAGTCCCC

>  <Unit spec>
z-score

>  <binding signal>
1.43

$$$$
>  <Residue sequence>
CGGAGCGCCCT

>  <Unit spec>
z-score

>  <binding signal>
-0.94

$$$$
>  <Residue sequence>
CAGGTTACCCC

>  <Unit spec>
z-score

>  <binding signal>
0.345

$$$$
>  <Residue sequence>
CAGTAGGTCCC

>  <Unit spec>
z-score

>  <binding signal>
-0.34

$$$$

Could you report binding signal for every entry in the following list?
1. CGATTAATCCC
2. AGGATAATCCC
3. CAGGGCTCCCT

A:
1: -0.0553; 2: 0.562; 3: -0.698

====

Target: C-Rel subunit;p52 subunit (Homo sapiens;Homo sapiens, UniProt Q04864;Q00653 1-285;4-332)
Sequence 1: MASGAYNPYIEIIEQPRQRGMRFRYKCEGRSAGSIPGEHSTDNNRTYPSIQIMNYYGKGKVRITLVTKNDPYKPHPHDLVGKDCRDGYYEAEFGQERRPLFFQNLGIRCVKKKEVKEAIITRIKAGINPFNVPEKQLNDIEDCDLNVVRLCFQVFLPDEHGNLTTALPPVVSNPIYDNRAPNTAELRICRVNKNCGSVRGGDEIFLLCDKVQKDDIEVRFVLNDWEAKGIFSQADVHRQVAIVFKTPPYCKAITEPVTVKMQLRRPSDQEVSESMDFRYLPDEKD
Sequence 2: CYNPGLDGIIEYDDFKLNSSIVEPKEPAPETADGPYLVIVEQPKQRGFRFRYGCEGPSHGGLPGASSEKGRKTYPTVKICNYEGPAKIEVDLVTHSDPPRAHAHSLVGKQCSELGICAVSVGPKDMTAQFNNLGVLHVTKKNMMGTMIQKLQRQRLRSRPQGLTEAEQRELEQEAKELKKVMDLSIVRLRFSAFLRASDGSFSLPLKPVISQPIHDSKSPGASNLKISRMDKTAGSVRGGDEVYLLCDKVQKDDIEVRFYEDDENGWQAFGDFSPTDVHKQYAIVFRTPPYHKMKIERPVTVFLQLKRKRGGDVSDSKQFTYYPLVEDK
Assay: protein binding microarray; high values mean tight binding
Settings: dsDNA, one strand shown
Experimental readout: binding signal (z-score)
Numbers only, in z-score.

Guide cases for binding signal, answers given:
>  <Residue sequence>
CGATTAACCCT

>  <Unit spec>
z-score

>  <binding signal>
-0.644

$$$$
>  <Residue sequence>
CAAGACGCCCT

>  <Unit spec>
z-score

>  <binding signal>
-0.839

$$$$

Pending sequence:
Q: Would you mind telling me what binding signal value was observed for AGAATCCCCCC ?
A: 2.21

====

Target: RELA (p65) subunit of heterodimer;p50 subunit (Homo sapiens;Homo sapiens, UniProt Q04206;P19838 1-307;7-356)
Experiment: protein binding microarray; high values mean tight binding
Conditions: dsDNA, one strand shown
Experimental readout: binding signal (z-score)
Give bare numbers, in z-score.

Some solved cases for reference:
>  <Residue sequence>
AAGGTCCTCCT

>  <Unit spec>
z-score

>  <binding signal>
-0.86

$$$$
>  <Residue sequence>
CAAAGGCCCCC

>  <Unit spec>
z-score

>  <binding signal>
0.041

$$$$
>  <Residue sequence>
GGGATGCCCCT

>  <Unit spec>
z-score

>  <binding signal>
1.78

$$$$
>  <Residue sequence>
CAATATACCCC

>  <Unit spec>
z-score

>  <binding signal>
0.199

$$$$

Moving on to the next sequence.
Q: Name the reported binding signal value associated with the sequence AAAGGATCCCT
A: -0.582

====

Give measured binding signal for each item. Keep answers brief.
Target: RELA (p65) subunit of heterodimer;p50 subunit (Homo sapiens;Homo sapiens, UniProt Q04206;P19838 1-307;7-356)
Assay: protein binding microarray; high values mean tight binding
Details: dsDNA, one strand shown
Give bare numbers, in z-score.

Parameters: items (list). Returns: binding signal for each item.
1. CAGTGACCCCT
2. AGATTATCCCT
3. AAAGTCGTCCT
4. AGGTTGGCCCC
5. GAAGAATCCCC

A:
-0.321
0.262
-1.25
-0.277
2.18

Could you report binding signal for every entry in the following list?
1. GGATAATCCCC
2. GAAAGTTCCCT
3. GAAGGCGTCCC
4. GAAATGCTCCC
5. GGGTGTGTCCC

A:
2.07
1.12
-0.134
-0.482
0.647

Fill in binding signal for each of the 2 sequences listed.
1. CAGAAGGCCCC
2. CAATTCCCCCC

A:
[-0.114, 2.3]
